Origin of the recorded values: patent US20220112288A1

molecular target: T1, Recombinant human CD4 (R&D Systems, Cat. 10327-CD) (human, UniProt P01730 26-390, limits assumed); experiment: BLI (Octet Red384), non-clonal supernatant on AMC sensor, 100 nM human CD4, 1:1 local fit;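 note: hybridoma antibodies captured from supernatant, single CD4 concentration as analyte, association and dissociation phases fitted together, giving single-point kinetic estimates per supernatant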
T1 construct: Bought soluble recombinant protein used as analyte at 100 nM; also called huCD4
MEASURED_ATTRIBUTE: Kd (nM)
Report the figure in nM without appending any unit label.

Examples from the recorded data:
{"BINDER": "75110_05A11A (antibody, V domains shown, Non-clonal AlivaMab Mouse Kappa hybridoma supernatant, captured by anti-mouse IgG Fc (human V regions, mouse Fc)) VH: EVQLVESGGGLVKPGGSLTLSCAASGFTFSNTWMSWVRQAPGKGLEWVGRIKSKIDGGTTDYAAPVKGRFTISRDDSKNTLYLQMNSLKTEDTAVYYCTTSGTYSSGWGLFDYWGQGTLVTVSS VL: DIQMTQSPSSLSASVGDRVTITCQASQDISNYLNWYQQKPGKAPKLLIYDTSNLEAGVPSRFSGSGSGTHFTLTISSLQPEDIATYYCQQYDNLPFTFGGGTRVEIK", "Kd, nM": 3.2}
{"BINDER": "75110_06E14A (antibody, V domains shown, Non-clonal AlivaMab Mouse Kappa hybridoma supernatant, captured by anti-mouse IgG Fc (human V regions, mouse Fc)) VH: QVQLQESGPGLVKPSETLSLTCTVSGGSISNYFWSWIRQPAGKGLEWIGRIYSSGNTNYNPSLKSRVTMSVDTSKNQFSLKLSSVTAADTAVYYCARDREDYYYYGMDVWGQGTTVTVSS VL: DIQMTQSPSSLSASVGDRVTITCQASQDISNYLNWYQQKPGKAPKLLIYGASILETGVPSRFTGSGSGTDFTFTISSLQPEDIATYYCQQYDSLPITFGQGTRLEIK", "Kd, nM": 12}
{"BINDER": "75110_04H17A (antibody, V domains shown, Non-clonal AlivaMab Mouse Kappa hybridoma supernatant, captured by anti-mouse IgG Fc (human V regions, mouse Fc)) VH: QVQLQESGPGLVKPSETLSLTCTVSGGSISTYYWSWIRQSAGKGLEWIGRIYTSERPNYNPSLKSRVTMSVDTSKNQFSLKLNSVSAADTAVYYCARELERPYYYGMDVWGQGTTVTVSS VL: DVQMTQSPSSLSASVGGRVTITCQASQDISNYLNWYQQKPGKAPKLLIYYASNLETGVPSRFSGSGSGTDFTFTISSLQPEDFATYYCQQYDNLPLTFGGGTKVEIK", "Kd, nM": 9}
{"BINDER": "75110_02I18A (antibody, V domains shown, Non-clonal AlivaMab Mouse Kappa hybridoma supernatant, captured by anti-mouse IgG Fc (human V regions, mouse Fc)) VH: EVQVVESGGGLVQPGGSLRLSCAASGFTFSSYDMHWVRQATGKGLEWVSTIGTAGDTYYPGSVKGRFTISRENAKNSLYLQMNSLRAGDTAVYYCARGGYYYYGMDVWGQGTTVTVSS VL: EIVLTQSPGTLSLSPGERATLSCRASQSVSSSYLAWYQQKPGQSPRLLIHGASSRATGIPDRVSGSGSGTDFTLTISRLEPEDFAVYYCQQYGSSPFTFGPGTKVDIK", "Kd, nM": 9}

Req: Requested read-out: Kd. Entry: 75110_06K03A (antibody, V domains shown, Non-clonal AlivaMab Mouse Kappa hybridoma supernatant, captured by anti-mouse IgG Fc (human V regions, mouse Fc)) VH: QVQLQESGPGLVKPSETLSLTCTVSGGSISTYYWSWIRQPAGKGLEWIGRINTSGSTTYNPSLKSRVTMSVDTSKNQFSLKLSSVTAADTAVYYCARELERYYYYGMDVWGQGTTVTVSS VL: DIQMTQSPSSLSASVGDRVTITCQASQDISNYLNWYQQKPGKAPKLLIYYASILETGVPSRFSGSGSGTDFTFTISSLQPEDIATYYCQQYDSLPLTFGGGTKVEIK
Resp: 6.8

Req: Next record, please: 75110_06G04A (antibody, V domains shown, Non-clonal AlivaMab Mouse Kappa hybridoma supernatant, captured by anti-mouse IgG Fc (human V regions, mouse Fc)) VH: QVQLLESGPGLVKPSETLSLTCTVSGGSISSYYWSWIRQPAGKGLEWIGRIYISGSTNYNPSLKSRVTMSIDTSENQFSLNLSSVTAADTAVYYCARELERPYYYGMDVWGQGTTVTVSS VL: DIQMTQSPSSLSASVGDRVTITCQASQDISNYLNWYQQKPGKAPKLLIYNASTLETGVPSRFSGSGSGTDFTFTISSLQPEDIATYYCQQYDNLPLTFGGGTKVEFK
Resp: 14
